experiment: qHTS assay for small molecules that induce genotoxicity in human embryonic kidney cells expressing luciferase-tagged ATAD5 - cell viability (AID 651634); details: HEK293T ATAD5-luc cells viability, CellTiter-Fluor, 15.5 h; series mostly up to 83.3 µM; note: nearly all actives have a fitted effect of over 25% in size
Results filed as inconclusive are left out. Activity calls are given as the source filed them. Calls come from the whole dose curve.
Labels: active, inactive

Compound	Assigned category
CCOP(=O)(SC(C)CC)N1CCSC1=O (stereo unspecified)	inactive
C[N+](C)(C)CC1CO1 (stereo unspecified)	inactive
CC(Cl)C(=O)O (stereo unspecified)	inactive
OC[P+](CO)(CO)CO	inactive
O=C(O)COc1cc(Cl)c(Cl)cc1Cl	inactive
CC(=O)OC(c1ccccc1)C(Cl)(Cl)Cl (stereo unspecified)	inactive
ClCc1ccccc1Cl	inactive
NCCc1cc(O)c(O)cc1O	inactive
CCC(C)(C)c1ccc(O)c(C(C)(C)CC)c1	active
Nc1ccccc1C(=O)OCCc1ccccc1	inactive
COc1cc(C[C@@H](C)N)c(OC)cc1Br	inactive
CCCC(C)(COC(N)=O)COC(=O)NC(C)C (stereo unspecified)	inactive
C[Si](Cn1cncn1)(c1ccc(F)cc1)c1ccc(F)cc1	inactive
C[C@H]1[C@@H]2Cc3ccc(O)cc3[C@@]1(C)CCN2C	inactive
CCOP(=S)(OCC)Oc1ccc(S(C)=O)cc1 (stereo unspecified)	inactive
Clc1ccccc1	inactive
C[C@H]1O[C@H](OC2[C@@H](O)[C@@H](O)C(O)[C@H](O)[C@H]2O)[C@@H](N)C[C@@H]1N=C(N)C(=O)O (stereo partly specified)	inactive
CNC(=O)Oc1cccc(N=CN(C)C)c1	inactive
O=S(=O)(Cl)Cl	inactive
CCC1CCC(=O)O1 (stereo unspecified)	inactive
OCCCl	inactive
COc1ccc(C(O)(c2cncnc2)C2CC2)cc1 (stereo unspecified)	inactive
CCNC(=O)NC(=O)/C(C#N)=N/OC	inactive
O=C(Cc1ccccc1)OCCc1ccccc1	inactive
CC(C)CCON=O	inactive
CC[N+]1(CCOC(=O)C(O)(c2ccccc2)c2ccccc2)CCCCC1	inactive

----------
assay: qHTS assay for identifying genotoxic compounds that show differential cytotoxicity against isogenic chicken DT40 cell lines with known DNA damage response pathways - Rev3 mutant cell line (AID 743014); conditions: chicken DT40 Rev3-/- viability, CellTiter-Glo, 40 h; series mostly up to 68.4 µM; note: nearly all actives have a fitted effect of over 55% in size; note: potency is the fitted concentration of half-maximal effect
Records with an inconclusive call do not appear. Activity calls are given as the source filed them. Calls follow the shape of the dose curve; as a rule, active = well fitted cell-killing curve with a large enough effect in the repeat runs; inconclusive = weak or mixed curves, or effect the other way; inactive = no such curve, though single readings can be large or run the other way.
Measurement label: Potency

Compound	Measurement label	Result
O=C(NC(=O)c1cc(F)c(F)cc1Cl)Nc1cc(F)ccc1N1CCC(C(=O)O)CC1	Potency	inactive
CCCC(C)(COC(N)=O)COC(=O)NC(C)C (configuration not stated)	Potency	inactive
CC(C)(c1ccccc1)c1cc(-n2nc3ccccc3n2)c(O)c(C(C)(C)c2ccccc2)c1	Potency	inactive
CCCSP(=S)(OCC)Oc1ccc(SC)cc1 (configuration not stated)	Potency	15.4 µM (active)
Nc1c(Br)cc(Br)c2c1C(=O)c1ccccc1C2=O	Potency	inactive
CC(C)(C)NCC(O)c1ccccc1Cl (configuration not stated)	Potency	inactive
O=C(O)C(F)(F)C(F)(F)C(F)(F)C(F)(F)C(F)(F)C(F)(F)C(F)(F)C(F)(F)F	Potency	inactive
Clc1ccccc1	Potency	inactive
Oc1cccc(Cl)c1	Potency	inactive
O=C(Cc1ccccc1)c1ccccc1	Potency	inactive
CCCN(CCC)c1c([N+](=O)[O-])cc(C(C)C)cc1[N+](=O)[O-]	Potency	inactive
CCCBr	Potency	inactive
CC(C)(C)OOC(C)(C)CCC(C)(C)OOC(C)(C)C	Potency	68.6 µM (active)
CC(Oc1cc(Cl)c(Cl)cc1Cl)C(=O)O (configuration not stated)	Potency	inactive
CCC1(C2=NCCN2)Cc2ccccc2O1 (configuration not stated)	Potency	5.31 µM (active)
C[N+](C)(C)CCOC(=O)C(O)(c1ccccc1)c1ccccc1	Potency	inactive
CCOP(=O)(O)C(N)=O	Potency	inactive
CC(C)c1ccc(NC(=O)N(C)C)cc1	Potency	68.5 µM (active)
O=C([O-])c1ccccn1.O=C([O-])c1ccccn1.O=C([O-])c1ccccn1.[Cr+3]	Potency	inactive
CN1C(=O)CN=C(c2ccccc2)c2cc([N+](=O)[O-])ccc21	Potency	inactive
COc1cc(CC(C)N)c(OC)cc1Br (configuration not stated)	Potency	15.9 µM (active)
O=C(O)COc1cc(Cl)c(Cl)cc1Cl	Potency	inactive
CCC(C)(C)O	Potency	inactive
CC(=O)OC(c1ccccc1)C(Cl)(Cl)Cl (configuration not stated)	Potency	inactive
C=C(C)C(=O)OCCCCOC(=O)C(=C)C	Potency	inactive
NNCCO	Potency	inactive
C[C@H](N)[C@H](O)c1ccc(O)c(O)c1	Potency	11.9 µM (active)
Cc1nc(N(C)C)nc(OC(=O)N(C)C)c1C	Potency	inactive
CC(C)OC(=O)Cc1ccccc1	Potency	inactive
CC[N+]1(C)CCCC(OC(=O)C(O)(c2ccccc2)c2ccccc2)C1 (configuration not stated)	Potency	inactive
COc1ccccc1N1CCNCC1	Potency	inactive
O=[N+]([O-])O[C@H]1CO[C@H]2[C@@H]1OC[C@H]2O[N+](=O)[O-]	Potency	inactive

----------
assay: A CellTox Green Cytotoxicity Assay to monitor cytotoxicity in HepG2 cells - 0 hour (AID 1224882); conditions: CellTox Green fluorescence; series mostly up to 76.8 µM; note: nearly all actives have a fitted effect of over 35% in size
The source made the active and inactive calls. The call rests on the fitted dose curve; in most records, active means well fitted activation curve with a large enough effect in the repeat runs; inconclusive means weak or mixed curves; inactive means flat fitted curve, though single readings scatter.
Labels: active, inactive

Compound	Assigned category
Nc1ccccc1C(=O)OCCc1ccccc1	inactive
[Cl-].[Cl-].[Hg+2]	inactive
Clc1ccccc1	inactive
O=[N+]([O-])O[C@H]1CO[C@H]2[C@@H]1OC[C@H]2O[N+](=O)[O-]	inactive
CCCCCBr	inactive
N#CC(C#N)=Cc1ccc(O)c(O)c1	active
COc1ccc(C(O)(c2cncnc2)C2CC2)cc1 (configuration not stated)	inactive
O=C(N[C@H]1CN2CCC1CC2)c1ccc2c(c1)OCCO2	inactive
COC1=CC(=O)O[C@@H](/C=C/c2ccc3c(c2)OCO3)C1	inactive
Nc1ccc2c(c1)Cc1ccccc1-2	inactive
C[N+](C)(C)CC1CO1 (configuration not stated)	inactive
CC(CC(C(N)=O)(c1ccccc1)c1ccccc1)N(C)C (configuration not stated)	inactive
N#CC(C#N)=C(C#N)C#N	inactive
CCOC(=O)C1OC1(C)c1ccccc1 (configuration not stated)	inactive
CC(C)(C#N)C(C)(C)C#N	inactive
O=C(O)c1ccc(=O)[nH]c1	inactive
Oc1cccc(Cl)c1	inactive
CC(C)c1ccc(NC(=O)N(C)C)cc1	inactive
CCCCOC(=O)CCC(=O)OCCCC	inactive
CCCC(C)(COC(N)=O)COC(=O)NC(C)C (configuration not stated)	inactive
CCC1(C2=NCCN2)Cc2ccccc2O1 (configuration not stated)	inactive
C=CC(=O)OCC	inactive

----------
experiment: qHTS assay for identifying genotoxic compounds that show differential cytotoxicity against isogenic chicken DT40 cell lines with known DNA damage response pathways - Rad54/Ku70 mutant cell line (AID 743015); details: DT40 Rad54/Ku70 mutant viability, CellTiter-Glo, 40 h; series mostly up to 66.8 µM; note: nearly all actives have a fitted effect of over 60% in size
Records with an inconclusive call do not appear. Activity calls are given as the source filed them. Calls follow the shape of the dose curve; as a rule, active = well fitted cell-killing curve with a large enough effect in the repeat runs; inconclusive = weak or mixed curves; inactive = no such curve, though single readings can be large or run the other way.
Labels: 1 (yes) (active), 0 (no) (inactive)

Compound	Assigned category
COC(=O)C1(O)c2ccccc2-c2ccccc21	0 (no)
O=C(O)COc1cc(Cl)c(Cl)cc1Cl	0 (no)
CCCC1CCCCN1 (centres undefined)	0 (no)
C#C[C@]1(O)CC[C@H]2[C@@H]3CCC4=CC(=O)CCC4=C3C=C[C@@]21CC	1 (yes)
O=C(NC(=O)c1cc(F)c(F)cc1Cl)Nc1cc(F)ccc1N1CCC(C(=O)O)CC1	0 (no)
CCc1cnc(C2=NC(C)(C(C)C)C(=O)N2)c(C(=O)O)c1 (centres undefined)	0 (no)
Cc1nc(N(C)C)nc(OC(=O)N(C)C)c1C	0 (no)
CCCC(C)(COC(N)=O)COC(=O)NC(C)C (centres undefined)	0 (no)
Nc1ccccc1C(=O)OCCc1ccccc1	0 (no)
C=CCc1ccccc1O	0 (no)
CCCSP(=S)(OCC)Oc1ccc(SC)cc1 (centres undefined)	1 (yes)
CON(C)C(=O)Nc1ccc(Cl)cc1	0 (no)
CCOC(=O)C1OC1(C)c1ccccc1 (centres undefined)	0 (no)
Clc1ccc(Cl)c(Cl)c1	0 (no)
Oc1cccc(Cl)c1	0 (no)
O=C1CC[C@@]2(O)[C@H]3Cc4ccc(O)c5c4[C@@]2(CCN3CC2CC2)[C@H]1O5	0 (no)
CC[N+]1(C)CCCC(OC(=O)C(O)(c2ccccc2)c2ccccc2)C1 (centres undefined)	0 (no)
Cc1ccc2c(C)cccc2c1	0 (no)
CC[N+]1(CCOC(=O)C(O)(c2ccccc2)c2ccccc2)CCCCC1	0 (no)
C[C@]12C=CC3=C4CCC(=O)C=C4CC[C@H]3[C@@H]1CC[C@@H]2O	1 (yes)
C[N+]1(CCC(C(N)=O)(c2ccccc2)c2ccccc2)CCCCC1	0 (no)
Cc1ncc(C[n+]2csc(CCO)c2C)c(N)n1	0 (no)
CN(C)N	0 (no)
CCC(C)(C)O	0 (no)
